As a worked illustration, we turn to Ki data collected for Rho-associated protein kinase 1 (Homo sapiens).
measurement-label: Ki (nM)

Some solved entries appear below for comparison.
# structure-smiles, unit-annotation, Ki
rows = [
    ("CN1CCN(CCCOc2cccc(CC(=O)Nc3nc(-c4c[nH]c5nccc(F)c45)cs3)c2)CC1", "nM", 10),
    ("CS(=O)(=O)Nc1cccc(CC(=O)Nc2cc(-c3c[nH]c4ncccc34)cs2)c1", "nM", 100),
    ("CS(=O)(=O)Nc1cccc(CC(=O)Nc2nc(-c3c[nH]c4ncc(Br)cc34)cs2)c1", "nM", 22),
    ("CS(=O)(=O)Nc1cccc(CC(=O)Nc2nc(-c3c[nH]c4ncc(F)cc34)cs2)c1", "nM", 3),
    ("CS(=O)(=O)Nc1cccc(CC(=O)Nc2csc(-c3c[nH]c4ncccc34)n2)c1", "nM", 10),
]

I = CS(=O)(=O)Nc1cccc(CC(=O)Nc2nnc(-c3c[nH]c4ncccc34)s2)c1
II = O=C(Cc1cccc(OCCCC2CCNCC2)c1)Nc1nc(-c2c[nH]c3nccc(F)c23)cs1
Among I and II , which shows a numerically higher Ki result? Which one? Tell me its label.
I
(I: 7 nM, II: 3 nM)

P = CS(=O)(=O)Nc1cccc(CC(=O)Nc2nc(-c3c[nH]c4nccc(Cl)c34)cs2)c1
Q = CS(=O)(=O)Nc1cccc(CC(=O)Nc2cc(-c3c[nH]c4ncccc34)ncn2)c1
Min Ki? P | Q Please identify the chosen entry by its label.
Q
